Listed here: items and their measured cough strokes (%).
Test system: cough stroke caused by the aerosol (citric acid)
Assay: Anti-tussive activity: cough strokes caused by citric acid aerosol
Type: in vivo, Guinea pigs
Details: guinea pig, citric acid 7.5% aerosol, 110 micromoles/Kg i.p., 30 minutes after injection, counted for 10 minutes; control group = 100%
Where a name gives a salt, the structure may show the parent alone.
# value in %; strip the unit string

- molecule: "CN1CC[C@@]23CCCC[C@@H]2[C@@H]1Cc1ccc(O)cc13 [Dextrorphan hydrochloride]"
  target-or-test-system: "cough stroke caused by the aerosol (citric acid)"
  cough strokes (%): 40
- molecule: "COc1ccc2c(c1)[C@]13CCCC[C@@H]1[C@H](C2)N(C)CC3 [Dextromethorphan hydrochloride]"
  target-or-test-system: "cough stroke caused by the aerosol (citric acid)"
  cough strokes (%): 30
- molecule: "COc1ccc2c(c1)[C@@]13CCCC[C@H]1[C@@H](C2)N(C)CC3 [Dextromethorphan nitrate]"
  target-or-test-system: "cough stroke caused by the aerosol (citric acid)"
  cough strokes (%): 0

Kindly review the next molecule as well.
Field cough strokes (%) (system: cough stroke caused by the aerosol (citric acid)) for entry CN1CC[C@]23CCCC[C@H]2[C@H]1Cc1ccc(O)cc13 [Dextrorphan nitrate] = 0
